Taken from patent US10053468B2.

Biological target: RORγt (Homo sapiens, UniProt P51449)
Sequence (P51449 1-497 isoform P51449-2): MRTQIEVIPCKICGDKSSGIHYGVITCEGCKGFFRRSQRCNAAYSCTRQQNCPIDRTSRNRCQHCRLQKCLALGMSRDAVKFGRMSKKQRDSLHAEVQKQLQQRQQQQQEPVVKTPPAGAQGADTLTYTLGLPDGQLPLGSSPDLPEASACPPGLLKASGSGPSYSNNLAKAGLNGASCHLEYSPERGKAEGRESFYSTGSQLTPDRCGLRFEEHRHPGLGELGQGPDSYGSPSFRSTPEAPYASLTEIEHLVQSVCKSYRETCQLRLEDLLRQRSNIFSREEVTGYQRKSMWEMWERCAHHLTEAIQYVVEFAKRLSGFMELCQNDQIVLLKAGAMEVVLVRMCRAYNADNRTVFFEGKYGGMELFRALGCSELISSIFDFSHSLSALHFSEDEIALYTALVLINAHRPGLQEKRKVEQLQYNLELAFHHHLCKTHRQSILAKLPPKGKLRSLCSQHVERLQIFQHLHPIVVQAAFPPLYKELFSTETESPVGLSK
Test: RORγt binding test using fluorescent-labeled cholesterol (TR-FRET)
Settings: read-out: Binding inhibitory rate of fluorescent-labeled cholesterol to RORγt at test compound 1 μM (%)
RECORDED_ENDPOINT: inhibition at 1 µM (%)

State its inhibition at 1 µM: COc1ccc2c(c1)CCN(C(=O)CC(F)(F)F)[C@H]2C(=O)Nc1cc(F)c(C(C)(C)C(=O)N2CCCC2)c(F)c1
102

State its inhibition at 1 µM: COc1ccc2c(n1)CCN(C(=O)Cc1cc(O)no1)[C@H]2C(=O)Nc1cc(F)c2c(c1)CCC2(C)C
102

State its inhibition at 1 µM: CC[Si](C)(C)c1c(F)cc(NC(=O)[C@H]2c3ccc(OC)nc3CCN2C(=O)c2cc(O)no2)cc1F
103

State its inhibition at 1 µM: COc1ccc2c(c1)CCN(C(=O)Cc1cc(O)no1)[C@H]2C(=O)Nc1ccc(C(C)(C)C)c(C#N)c1
102

State its inhibition at 1 µM: COc1ccc2c(c1)CCN(C(=O)Cc1cc(O)no1)[C@H]2C(=O)Nc1cc(F)c2c(c1)CCC2(C)C
103

State its inhibition at 1 µM: COc1ccc2c(c1)CCN(C(=O)c1cc(O)no1)C2C(=O)Nc1cc(F)c2c(c1)CCC2(C)C (stereo not shown)
103

State its inhibition at 1 µM: CCOCC(C)(C)c1c(F)cc(NC(=O)[C@H]2c3ccc(OC)cc3CCN2C(=O)c2cc(O)no2)cc1F
100

State its inhibition at 1 µM: COc1ccc2c(c1)CCN(C(=O)Cc1nnc(C)o1)[C@H]2C(=O)Nc1ccc(C(C)(C)C)c(F)c1
102

State its inhibition at 1 µM: COc1ccc2c(c1)CCN(C(=O)CC#N)[C@H]2C(=O)Nc1cc(F)c(C(C)(C)C(=O)N2CCCC2)c(F)c1
104

State its inhibition at 1 µM: CCOc1ccc2c(c1)CCN(C(=O)CCCC(=O)O)[C@H]2C(=O)Nc1cc(F)c(C(C)(C)COCC(F)F)c(F)c1
100

State its inhibition at 1 µM: COc1ccc2c(c1)CCN(C(=O)Cc1cc(O)no1)[C@H]2C(=O)Nc1cc(F)c(C(C)(C)COCC(F)F)c(F)c1
100

State its inhibition at 1 µM: CCOc1ccc2c(n1)CCN(C(=O)Cc1cc(O)no1)[C@H]2C(=O)Nc1ccc([Si](C)(C)C)c(F)c1
99

State its inhibition at 1 µM: COCc1ccc2c(c1)CCN(C(=O)Cc1cc(O)no1)[C@H]2C(=O)Nc1ccc(C(C)(C)C)c(F)c1
100

State its inhibition at 1 µM: COc1ccc2c(c1)CCN(C(=O)Cc1cccnc1)[C@H]2C(=O)Nc1cc(F)c(C(C)(C)C(=O)N2CCCC2)c(F)c1
103

State its inhibition at 1 µM: COc1ccc2c(c1)CCN(C(=O)c1cc(O)no1)[C@H]2C(=O)Nc1cc(F)c(C(C)(C)COCC(F)F)c(F)c1
100

State its inhibition at 1 µM: COc1ccc2c(c1)CCN(C(=O)CCO)[C@H]2C(=O)Nc1ccc(C(C)(C)C)c(F)c1
102

State its inhibition at 1 µM: COc1ccc2c(n1)CCN(C(=O)Cc1cc(O)no1)[C@H]2C(=O)Nc1cc(F)c([Si](C)(C)C)c(F)c1
101

State its inhibition at 1 µM: COc1ccc2c(c1)CCN(C(=O)c1cc(O)no1)C2C(=O)Nc1ccc([Si](C)(C)C)c(F)c1 (stereo not shown)
101

State its inhibition at 1 µM: COc1ccc2c(c1)CCN(C(=O)c1cc(O)no1)C2C(=O)Nc1cc(F)c(C(C)(C)C)c(F)c1 (stereo not shown)
103

State its inhibition at 1 µM: COCC(C)(C)c1ccc(NC(=O)[C@H]2c3ccc(OC)cc3CCN2C(=O)Cc2cc(O)no2)cc1F
102

State its inhibition at 1 µM: CC[Si](C)(C)c1c(F)cc(NC(=O)[C@H]2c3ccc(COC)nc3CCN2C(=O)Cc2cc(O)no2)cc1F
101

State its inhibition at 1 µM: COCc1ccc2c(n1)CCN(C(=O)c1cc(O)no1)[C@H]2C(=O)Nc1cc(F)c([Si](C)(C)C)c(F)c1
100

State its inhibition at 1 µM: COc1ccc2c(c1)CCN(C(=O)CC#N)[C@H]2C(=O)Nc1cc(F)c(C(C)(C)C)c(F)c1
101

State its inhibition at 1 µM: COc1ccc2c(c1)CCN(C(=O)Cc1cc(O)no1)[C@H]2C(=O)Nc1ccc([Si](C)(C)C)c(C#N)c1
104

State its inhibition at 1 µM: COc1ccc2c(c1)CCN(C(=O)CCCC(=O)O)[C@H]2C(=O)Nc1cc(F)c(C(C)(C)COCC(F)F)c(F)c1
99

State its inhibition at 1 µM: COCC(C)(C)c1c(F)cc(NC(=O)[C@H]2c3ccc(OC)cc3CCN2C(=O)Cc2cc(O)no2)cc1F
99

State its inhibition at 1 µM: COc1ccc2c(c1)CCN(C(=O)Cc1cc(O)no1)[C@H]2C(=O)Nc1cc(F)c([Si](C)(C)C)c(F)c1
103

State its inhibition at 1 µM: COc1ccc2c(c1)CCN(C(=O)c1cc(O)no1)[C@H]2C(=O)Nc1ccc(C(C)(C)COCC(F)F)c(F)c1
101

----------
target: RORγt (Homo sapiens, UniProt P51449); test: Cofactor recruitment test (Alpha Screen, biotinylated SRC-1 peptide); format: biochemical; settings: read-out: Signal value inhibitory rate at test compound 1 μM (%)
RECORDED_ENDPOINT: inhibition at 1 µM (%)

Known inhibition at 1 µM results, listed for orientation:
State its inhibition at 1 µM: COc1ccc2c(c1)CCN(C(=O)Cn1cnccc1=O)[C@H]2C(=O)Nc1ccc(C(C)(C)C)c(F)c1 [Example 29]
88

State its inhibition at 1 µM: COc1ccc2c(c1)CCN(C(=O)CC(F)(F)F)[C@H]2C(=O)Nc1cc(F)c(C(C)(C)C(=O)N2CCCC2)c(F)c1 [Example 104]
101

State its inhibition at 1 µM: COc1ccc2c(c1)CCN(C(=O)[C@@H]1CNC(=O)C1)[C@H]2C(=O)Nc1ccc(C(C)(C)C)c(F)c1 [Example 25]
85.8

State its inhibition at 1 µM: COc1ccc2c(c1)CCN(C(=O)Cc1nnc(C)o1)[C@H]2C(=O)Nc1cc(F)c(C(C)(C)C(=O)N2CCCC2)c(F)c1 [Example 106]
101

State its inhibition at 1 µM: CCOc1ccc2c(c1)CCN(C(=O)Cc1cc(O)no1)[C@H]2C(=O)Nc1cc(F)c(C(C)(C)COCC(F)F)c(F)c1 [Example 155]
84

I = CCOCC(C)(C)c1c(F)cc(NC(=O)[C@H]2c3ccc(OC)cc3CCN2C(=O)Cc2cc(O)no2)cc1F [Example 170]
II = CCOc1ccc2c(c1)CCN(C(=O)Cc1cc(O)no1)[C@H]2C(=O)Nc1cc(F)c(C(C)(C)COCCOC)c(F)c1 [Example 143]
Between I and II , whose recorded inhibition at 1 µM is greater? Write the label of whichever entry you select.
I
(I: 81%, II: 56%)

----------
molecular target: RORγt (Homo sapiens, UniProt P51449); assay: RORγt binding test using fluorescent-labeled cholesterol (TR-FRET); conditions: read-out: Binding inhibitory rate of fluorescent-labeled cholesterol to RORγt at test compound 1 μM (%)
RECORDED_ENDPOINT: inhibition at 1 µM (%)

State its inhibition at 1 µM: COc1ccc2c(c1)CCN(C(=O)c1ccc(=O)[nH]c1)C2C(=O)Nc1ccc([Si](C)(C)C)cc1 (stereo not shown)
99.7

State its inhibition at 1 µM: CCOc1ccc2c(n1)CCN(C(=O)CCCC(=O)O)[C@H]2C(=O)Nc1cc(F)c([Si](C)(C)C)c(F)c1
98

State its inhibition at 1 µM: CCOc1ccc2c(c1)CCN(C(=O)Cc1cc(O)no1)C2C(=O)Nc1cc(F)c2c(c1)CCC2(C)C (stereo not shown)
102

State its inhibition at 1 µM: COCc1ccc2c(c1)CCN(C(=O)Cc1cc(O)no1)[C@H]2C(=O)Nc1cc(F)c2c(c1)CCC2(C)C
102
